Target: CYP17 (Rattus norvegicus)
Construct: from tissue; host or cells: pooled rat testicular microsomes
Sequence (P11715 1-507): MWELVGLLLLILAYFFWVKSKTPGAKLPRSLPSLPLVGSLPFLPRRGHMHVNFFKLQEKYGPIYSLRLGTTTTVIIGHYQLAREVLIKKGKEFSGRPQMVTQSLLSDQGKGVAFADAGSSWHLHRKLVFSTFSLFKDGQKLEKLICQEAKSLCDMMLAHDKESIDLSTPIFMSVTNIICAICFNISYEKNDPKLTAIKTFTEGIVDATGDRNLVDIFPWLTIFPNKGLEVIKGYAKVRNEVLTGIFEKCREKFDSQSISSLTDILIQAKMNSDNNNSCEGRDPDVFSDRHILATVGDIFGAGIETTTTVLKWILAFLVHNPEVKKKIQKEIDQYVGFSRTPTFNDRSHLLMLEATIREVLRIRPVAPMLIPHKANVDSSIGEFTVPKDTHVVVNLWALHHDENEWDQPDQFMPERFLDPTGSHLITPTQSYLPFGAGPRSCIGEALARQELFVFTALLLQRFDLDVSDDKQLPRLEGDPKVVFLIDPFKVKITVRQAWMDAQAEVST
Assay: Inhibition of CYP17 (pooled rat testicular microsomes)
Type: biochemical
Outcome Measure: IC50 (nM)
The reply should contain only the number, in nM.

Give IC50 (CYP17 (Rattus norvegicus)) of the following compound: CC(=O)N1CCN(c2ccc(OCC3COC(Cn4ccnc4)(c4ccc(Cl)cc4Cl)O3)cc2)CC1 (stereo not shown) [Ketoconazole, ketoconazole, reference compound]
400

###

target: CYP2C9 (Homo sapiens, UniProt P11712)
Sequence (P11712 whole entry): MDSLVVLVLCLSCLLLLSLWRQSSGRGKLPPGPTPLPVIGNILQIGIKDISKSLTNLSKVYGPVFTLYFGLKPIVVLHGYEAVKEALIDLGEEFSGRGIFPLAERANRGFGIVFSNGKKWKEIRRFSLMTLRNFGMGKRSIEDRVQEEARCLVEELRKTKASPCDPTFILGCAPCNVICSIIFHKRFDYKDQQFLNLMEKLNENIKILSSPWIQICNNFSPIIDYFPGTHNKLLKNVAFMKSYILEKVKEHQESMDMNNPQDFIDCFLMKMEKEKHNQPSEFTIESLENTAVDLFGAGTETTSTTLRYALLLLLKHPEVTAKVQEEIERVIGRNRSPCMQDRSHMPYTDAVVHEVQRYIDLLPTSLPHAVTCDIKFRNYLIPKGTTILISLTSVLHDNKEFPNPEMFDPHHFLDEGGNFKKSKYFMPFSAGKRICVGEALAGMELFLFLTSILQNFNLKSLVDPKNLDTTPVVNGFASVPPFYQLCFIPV
Measured pIC50 by item
Lab note: report pIC50 as minus log10 of the concentration in molar units, number only.

Previously resolved entries follow.
[[record]]
molecule = "CC(C)C(c1ccc2cc(OCC(F)(F)F)c(OCC(F)(F)F)cc2c1)n1ccnn1 (stereo not shown) [Example 2]"
outcome_measure = "pIC50"
numeric_value = 5.54

[[record]]
molecule = "COc1cc2ccc(C(C(C)C)n3ccnn3)cc2cc1OC (stereo not shown) [Example 1]"
outcome_measure = "pIC50"
numeric_value = 5.19

[[record]]
molecule = "CC(C)C(c1ccc2cc(OCC(F)(F)F)ccc2n1)n1ccnn1 (stereo not shown) [Example 3]"
outcome_measure = "pIC50"
numeric_value = 5.49


Find the recorded pIC50 belonging to CC(C)C(c1ccc2cc(-c3ccc(F)cc3)ccc2n1)n1ccnn1 (stereo not shown) [Example 4] and report it.
4.62

###

biological target: CYP3A4 (Homo sapiens, UniProt P08684); test: Inhibition of liver cytochrome P450 enzymes (pooled human liver microsomes), CYP3A4
Sequence (P08684 whole entry): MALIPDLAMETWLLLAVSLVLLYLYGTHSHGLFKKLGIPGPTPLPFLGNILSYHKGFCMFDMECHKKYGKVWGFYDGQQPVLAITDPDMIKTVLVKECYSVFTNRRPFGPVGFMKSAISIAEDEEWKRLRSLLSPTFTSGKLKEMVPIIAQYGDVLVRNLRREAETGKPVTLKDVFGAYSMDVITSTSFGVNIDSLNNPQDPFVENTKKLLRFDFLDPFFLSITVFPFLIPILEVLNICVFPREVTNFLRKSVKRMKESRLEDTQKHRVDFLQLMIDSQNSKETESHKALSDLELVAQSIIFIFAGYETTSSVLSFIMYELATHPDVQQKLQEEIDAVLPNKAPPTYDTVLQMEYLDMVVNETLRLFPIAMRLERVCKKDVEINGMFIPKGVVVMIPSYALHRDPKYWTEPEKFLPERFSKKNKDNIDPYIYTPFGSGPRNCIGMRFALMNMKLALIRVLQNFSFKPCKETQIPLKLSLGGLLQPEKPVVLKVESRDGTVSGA
Outcome Measure: IC50 (µM)
The reply should contain only the number, in µM.

[[record]]
molecule = "CC(C)C(c1ccc2cc(-c3ccc(F)cc3)ccc2n1)n1ccnn1 (centres unmarked) [Example 4]"
numeric_value = 84


Turning now to a further record.
Find the recorded IC50 belonging to COc1cc2ccc(C(C(C)C)n3ccnn3)cc2cc1OC (centres unmarked) [Example 1] and report it.
11
